Listing: kcat/KM of selected proteins
Target: Factor X, P00742
Sequence (P00742 whole entry, looked up): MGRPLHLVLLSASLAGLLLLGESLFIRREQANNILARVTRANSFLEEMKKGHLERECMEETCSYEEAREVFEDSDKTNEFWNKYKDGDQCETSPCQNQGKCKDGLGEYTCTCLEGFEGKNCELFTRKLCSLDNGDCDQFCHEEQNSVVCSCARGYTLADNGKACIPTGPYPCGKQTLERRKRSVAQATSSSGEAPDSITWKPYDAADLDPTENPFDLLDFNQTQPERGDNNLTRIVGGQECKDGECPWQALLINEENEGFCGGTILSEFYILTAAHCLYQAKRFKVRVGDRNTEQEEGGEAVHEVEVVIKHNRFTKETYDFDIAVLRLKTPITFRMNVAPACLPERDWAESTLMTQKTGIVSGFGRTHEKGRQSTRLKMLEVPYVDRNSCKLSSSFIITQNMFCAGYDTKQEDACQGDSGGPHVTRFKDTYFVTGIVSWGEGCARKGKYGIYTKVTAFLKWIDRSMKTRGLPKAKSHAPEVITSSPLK
Respond with the bare value in M⁻¹ s⁻¹.

Consider the worked cases shown below.
The reported kcat/KM of the protein FIXa-Y155F/R318Y/R338E/R403E (protein) chain 1: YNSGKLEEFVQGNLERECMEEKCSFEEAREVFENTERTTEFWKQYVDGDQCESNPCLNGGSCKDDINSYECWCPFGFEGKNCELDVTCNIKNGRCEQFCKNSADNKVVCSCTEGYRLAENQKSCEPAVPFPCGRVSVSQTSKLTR chain 2: VVGGEDAKPGQFPWQVVLNGKVDAFCGGSIVNEKWIVTAAHCVETGVKITVVAGEHNIEETEHTEQKRNVIRIIPHHNYNAAINKYNHDIALLELDEPLVLNSYVTPICIADKEYTNIFLKFGSGYVSGWGRVFHKGYSALVLQYLRVPLVDRATCLESTKFTIYNNMFCAGFHEGGRDSCQGDSGGPHVTEVEGTSFLTGIISWGEECAMKGKYGIYTKVSEYVNWIKEKTKLT was 8.7e+07

The reported kcat/KM of the protein FIXa-D203N/F205T/K228N (protein) chain 1: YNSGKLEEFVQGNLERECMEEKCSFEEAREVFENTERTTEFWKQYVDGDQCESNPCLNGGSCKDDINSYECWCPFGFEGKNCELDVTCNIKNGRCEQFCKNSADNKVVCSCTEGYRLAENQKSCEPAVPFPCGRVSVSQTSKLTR chain 2: VVGGEDAKPGQFPWQVVLNGKVNATCGGSIVNEKWIVTAAHCVETGVNITVVAGEHNIEETEHTEQKRNVIRIIPHHNYNAAINKYNHDIALLELDEPLVLNSYVTPICIADKEYTNIFLKFGSGYVSGWGRVFHKGRSALVLQYLRVPLVDRATCLRSTKFTIYNNMFCAGFHEGGRDSCQGDSGGPHVTEVEGTSFLTGIISWGEECAMKGKYGIYTKVSRYVNWIKEKTKLT was 1.4e+07

The reported kcat/KM of the protein FIXa-D203N/F205T/R338A (protein) chain 1: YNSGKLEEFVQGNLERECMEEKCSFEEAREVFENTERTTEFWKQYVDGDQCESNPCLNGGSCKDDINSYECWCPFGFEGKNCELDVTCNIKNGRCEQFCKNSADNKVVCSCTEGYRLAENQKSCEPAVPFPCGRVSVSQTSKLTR chain 2: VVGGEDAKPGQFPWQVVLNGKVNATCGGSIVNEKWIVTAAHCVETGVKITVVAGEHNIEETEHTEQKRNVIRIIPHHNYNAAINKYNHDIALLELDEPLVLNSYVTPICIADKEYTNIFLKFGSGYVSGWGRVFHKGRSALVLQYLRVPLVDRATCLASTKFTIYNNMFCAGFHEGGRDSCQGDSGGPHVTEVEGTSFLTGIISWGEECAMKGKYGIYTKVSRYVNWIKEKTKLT was 6.2e+07

Next up:
The reported kcat/KM of the protein FIXa-D203N/F205T/R338E/R403E (protein) chain 1: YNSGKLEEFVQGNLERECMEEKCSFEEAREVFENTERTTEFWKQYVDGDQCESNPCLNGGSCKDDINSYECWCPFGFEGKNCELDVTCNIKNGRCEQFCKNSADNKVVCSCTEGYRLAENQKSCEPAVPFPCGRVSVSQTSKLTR chain 2: VVGGEDAKPGQFPWQVVLNGKVNATCGGSIVNEKWIVTAAHCVETGVKITVVAGEHNIEETEHTEQKRNVIRIIPHHNYNAAINKYNHDIALLELDEPLVLNSYVTPICIADKEYTNIFLKFGSGYVSGWGRVFHKGRSALVLQYLRVPLVDRATCLESTKFTIYNNMFCAGFHEGGRDSCQGDSGGPHVTEVEGTSFLTGIISWGEECAMKGKYGIYTKVSEYVNWIKEKTKLT was 1.9e+07

Where do the numbers come from? From patent US20210230570.
